assay: in vitro; conditions: rat, gh3-tre-luc cells, AC50 (uM) modified / 1000, Tox21_110001=Tox21_302210; viability, 1 nM T3 present, 24 h
Reported endpoint: CC50 at 24 h

Substance smiles	Assay value
CNC(=O)Oc1c(C(C)(C)C)cc(C)cc1C(C)(C)C	> 90 µM

###

system: GH3-TRE-Luc cell line; conditions: read-out: AC50 (uM) modified / 1000; Tox21_110001=Tox21_110174; viability, 1 nM T3 present, 24 h
Reported endpoint: CC50 (µM)

Substance smiles	Assay value
CN(C)CCCN1c2ccccc2CCc2ccccc21	9.04

###

test system: GH3-TRE-Luc cell line; conditions: read-out: AC50 (uM) modified / 1000; Tox21_110001=Tox21_112924; viability, 1 nM T3 present, 24 h

Compound	Target or test system	Quantity unit	CC50
C#C[C@]1(OC(C)=O)CC[C@H]2[C@@H]3CCC4=C[C@@H](OC(C)=O)CC[C@@H]4[C@H]3CC[C@@]21C [Ethynodiol diacetate]	GH3-TRE-Luc cell line	µM	44.6

###

assay: in vitro; details: rat, gh3-tre-luc cells, AC50 (uM) modified / 1000, Tox21_110001=Tox21_301565; viability, 1 nM T3 present, 24 h
Reported endpoint: CC50 at 24 h (µM)

Compound	Reported endpoint	Assay value
O=C1c2ccccc2C(=O)C1C(=O)C(c1ccccc1)c1ccc(Cl)cc1 (stereo not shown) [Chlorophacinone]	CC50 at 24 h	42.3

###

test system: GH3-TRE-Luc cell line; settings: read-out: AC50 (uM) modified / 1000; Tox21_110001=Tox21_300357; viability, 1 nM T3 present, 24 h
Reported endpoint: CC50 (µM)

Substance smiles	Reported endpoint	Assay value
CCCCCCc1ccc(O)cc1O	CC50	56.7

###

system: GH3-TRE-Luc cell line; details: read-out: AC50 (uM) modified / 1000; Tox21_110001=Tox21_110210; viability, 1 nM T3 present, 24 h

Substance smiles	CC50, µM
C[C@H](Cc1ccc(O)c(O)c1)[C@@H](C)Cc1ccc(O)c(O)c1	9.04

###

test: in vitro; settings: rat, gh3-tre-luc cells, AC50 (uM) modified / 1000, Tox21_110001=Tox21_302279; viability, 1 nM T3 present, 24 h

Substance smiles	CC50 at 24 h
O=C(O)c1ccccc1C(=O)Nc1cccc2ccccc12	> 90 µM

###

system: GH3-TRE-Luc cell line; details: read-out: AC50 (uM) modified / 1000; Tox21_110001=Tox21_200912; viability, 1 nM T3 present, 24 h

Compound	Quantity unit	CC50
C=C1C(CCl)(CCl)C2(Cl)C(Cl)C(Cl)C1(Cl)C2(Cl)Cl (stereo not shown)	µM	23.5

###

system: GH3-TRE-Luc cell line; details: read-out: AC50 (uM) modified / 1000; Tox21_110001=Tox21_201834; viability, 1 nM T3 present, 24 h

Substance smiles	CC50
CCc1nc(N)nc(N)c1-c1ccc(Cl)cc1	> 90 µM

###

test: in vitro; settings: rat, gh3-tre-luc cells, AC50 (uM) modified / 1000, Tox21_110001=Tox21_201332; viability, 1 nM T3 present, 24 h

Substance smiles	CC50 at 24 h
Cc1ccc([N+](=O)[O-])cc1C	> 90 µM

This collection of values is drawn from paper PMC6792352.
